Biological target: T1, TRCW5 antigen (CD3δε-Fc-Avi) (biotinylated (site not stated))
T1 construct: also called recombinant CD3
T1 sequence (chain, as listed by the source mutant limits assumed): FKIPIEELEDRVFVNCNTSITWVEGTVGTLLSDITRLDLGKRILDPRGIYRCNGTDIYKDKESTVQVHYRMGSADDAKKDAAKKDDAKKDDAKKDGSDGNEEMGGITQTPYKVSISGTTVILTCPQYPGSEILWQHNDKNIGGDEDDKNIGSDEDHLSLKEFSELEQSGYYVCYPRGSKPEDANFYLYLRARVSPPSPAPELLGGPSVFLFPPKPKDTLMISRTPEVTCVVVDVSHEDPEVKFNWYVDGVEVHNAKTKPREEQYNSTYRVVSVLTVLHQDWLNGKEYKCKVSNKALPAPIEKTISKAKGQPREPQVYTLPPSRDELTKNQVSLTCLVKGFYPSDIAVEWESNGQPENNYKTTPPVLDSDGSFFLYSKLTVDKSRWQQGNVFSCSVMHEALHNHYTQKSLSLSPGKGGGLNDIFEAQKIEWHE
Test: ELISA after heat

# binder, % Retained 55° C.
records = [
    ("CD3B2075 (scFv) scFv: QVQLVQSGAEVKKPGSSVKVSCKASGYTFTRSTMHWVRQAPGQGLEWIGYINPSSAYTNYAQKFQGRVTLTADKSTSTAYMELSSLRSEDTAVYYCASPQVHYDYNGFPYWGQGTLVTVSSGGSEGKSSGSGSESKSTGGSEIVLTQSPATLSASPGERVTLSCSASSSVSYMNWYQQKPGQSPRRLIYDSSKLASGVPARFSGSGSGRDYTLTISSLEPEDFAVYYCQQWSRNPPTFGGGTKVEIK", "103%"),
    ("CD3B2048 (scFv) scFv: QVQLVQSGAEVKKPGSSVKVSCKASGYTFTRSTMHWVKQAPGQGLEWIGYINPSSAYTNYNQKFQGRVTLTADKSTSTAYMELSSLRSEDTAVYYCASPQVHYDYNGFPYWGQGTLVTVSSGGSEGKSSGSGSESKSTGGSEIVLTQSPATLSASPGERVTLSCSASSSVSYMNWYQQKPGQAPRRLIYDSSKLASGVPARFSGSGSGRDYTLTISSLEPEDFAVYYCQQWSRNPPTFGGGTKVEIK", "105%"),
]
